- SYSTEM_NAME: Aurora kinase B (Homo sapiens)
- Sequence (Q96GD4 whole entry): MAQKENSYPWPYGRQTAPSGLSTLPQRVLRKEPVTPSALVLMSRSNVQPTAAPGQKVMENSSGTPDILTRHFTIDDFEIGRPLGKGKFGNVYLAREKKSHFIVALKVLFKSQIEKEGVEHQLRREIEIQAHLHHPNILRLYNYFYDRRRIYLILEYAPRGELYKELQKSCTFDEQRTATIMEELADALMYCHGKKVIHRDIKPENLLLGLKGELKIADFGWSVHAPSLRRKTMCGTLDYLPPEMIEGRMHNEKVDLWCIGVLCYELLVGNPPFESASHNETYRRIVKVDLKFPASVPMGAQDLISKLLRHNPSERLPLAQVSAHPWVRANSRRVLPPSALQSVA
- TEST_DESCRIPTION: Inhibition of recombinant human Aurora-B using tetra(LRRWLSG) as substrate
ATTRIBUTE_MEASURED: IC50

| MOLECULE | SYSTEM_NAME | VALUE_OBSERVED |
| --- | --- | --- |
| Cc1ccc(O)cc1CC[C@@H]1C(=O)CC[C@]2(C)[C@@H]([C@H](C)/C=C/CC(C)C)CC[C@@H]12 [CALICOFEROL A] | Aurora kinase B (Homo sapiens) | > 100 µM |
| Cc1ccc(O)cc1CC[C@@H]1[C@H](O)CC[C@]2(C)[C@@H]([C@H](C)CCCC(C)C)CC[C@@H]12 [ASTROGORGIADIOL] | Aurora kinase B (Homo sapiens) | 25.1 µM |

I would be grateful if you could share the reported IC50 for Cc1ccc(O)cc1CC[C@@H]1[C@H](O)CC[C@]2(C)[C@@H]([C@H](C)CCCC(C)C)[C@@H](O)C[C@@H]12 [CALICOFEROL B] .
> 100 µM

I would be grateful if you could share the reported IC50 for C=C(CC[C@@H](C)[C@H]1CC[C@H]2[C@H](CCc3cc(O)ccc3C)[C@H](O)CC[C@]12C)C(C)C [CALICOFEROL C] .
> 100 µM

I would be grateful if you could share the reported IC50 for Cc1ccc(O)cc1CC[C@@H]1[C@@H](O)CC[C@]2(C)[C@@H]([C@H](C)/C=C/CC(C)C)CC[C@@H]12 (relative stereo) .
38.1 µM

====

- SYSTEM_NAME: Serine/threonine-protein kinase Nek6 (Homo sapiens, UniProt Q9HC98)
- Sequence (Q9HC98 whole entry): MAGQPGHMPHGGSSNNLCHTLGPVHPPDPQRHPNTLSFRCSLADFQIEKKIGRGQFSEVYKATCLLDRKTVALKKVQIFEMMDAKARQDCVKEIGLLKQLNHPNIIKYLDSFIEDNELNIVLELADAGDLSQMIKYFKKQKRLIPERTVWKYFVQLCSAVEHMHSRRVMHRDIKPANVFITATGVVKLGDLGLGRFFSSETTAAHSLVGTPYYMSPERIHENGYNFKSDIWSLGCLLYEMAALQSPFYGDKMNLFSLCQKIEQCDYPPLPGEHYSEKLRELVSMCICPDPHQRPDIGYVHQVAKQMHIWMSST
- TEST_DESCRIPTION: Inhibition of recombinant human NEK6
Each entry below carries its reported IC50.

Worked examples follow.
| COMPOUND | VALUE_OBSERVED |
| --- | --- |
| Cc1ccc(O)cc1CC[C@@H]1[C@@H](O)CC[C@]2(C)[C@@H]([C@H](C)/C=C/CC(C)C)CC[C@@H]12 (relative stereo) | > 100 µM |
| Cc1ccc(O)cc1CC[C@@H]1C(=O)CC[C@]2(C)[C@@H]([C@H](C)CCCC(C)C)CC[C@@H]12 | > 100 µM |

Next compound, please.
I would be grateful if you could share the reported IC50 for "Cc1ccc(O)cc1CC[C@@H]1C(=O)CC[C@]2(C)[C@@H]([C@H](C)CCCC(C)C)[C@@H](O)C[C@@H]12" .
> 100 µM

====

Each entry below carries its reported IC50.
- SYSTEM_NAME: UniProtKB P08069
- TEST_DESCRIPTION: Inhibition of recombinant human IGF1-R using poly(Glu,Tyr)4:1 as substrate
Give a bare numeral; the unit nM is implied.

Which measured IC50 belongs to Cc1ccc(O)cc1CC[C@@H]1C(=O)CC[C@]2(C)[C@@H]([C@H](C)/C=C/CC(C)C)CC[C@@H]12 [CALICOFEROL A] , tested on UniProtKB P08069?
2420

Which measured IC50 belongs to "C=C(CC[C@@H](C)[C@H]1CC[C@H]2[C@H](CCc3cc(O)ccc3C)C(=O)CC[C@]12C)C(C)C" , tested on UniProtKB P08069?
2300

Which measured IC50 belongs to Cc1ccc(O)cc1CC[C@@H]1C(=O)CC[C@]2(C)[C@@H]([C@H](C)CCCC(C)C)CC[C@@H]12 [CALICOFEROL E] , tested on UniProtKB P08069?
2460

Which measured IC50 belongs to Cc1ccc(O)cc1CC[C@@H]1[C@H](O)CC[C@]2(C)[C@@H]([C@H](C)CCCC(C)C)CC[C@@H]12 [ASTROGORGIADIOL] , tested on UniProtKB P08069?
2770

Which measured IC50 belongs to Cc1ccc(O)cc1CC[C@@H]1[C@@H](O)CC[C@]2(C)[C@@H]([C@H](C)/C=C/CC(C)C)CC[C@@H]12 (relative stereo) , tested on UniProtKB P08069?
3160

====

Each entry below carries its reported IC50.
- SYSTEM_NAME: Dual specificity mitogen-activated protein kinase kinase 1 (Homo sapiens, UniProt Q02750)
- Sequence (Q02750 whole entry): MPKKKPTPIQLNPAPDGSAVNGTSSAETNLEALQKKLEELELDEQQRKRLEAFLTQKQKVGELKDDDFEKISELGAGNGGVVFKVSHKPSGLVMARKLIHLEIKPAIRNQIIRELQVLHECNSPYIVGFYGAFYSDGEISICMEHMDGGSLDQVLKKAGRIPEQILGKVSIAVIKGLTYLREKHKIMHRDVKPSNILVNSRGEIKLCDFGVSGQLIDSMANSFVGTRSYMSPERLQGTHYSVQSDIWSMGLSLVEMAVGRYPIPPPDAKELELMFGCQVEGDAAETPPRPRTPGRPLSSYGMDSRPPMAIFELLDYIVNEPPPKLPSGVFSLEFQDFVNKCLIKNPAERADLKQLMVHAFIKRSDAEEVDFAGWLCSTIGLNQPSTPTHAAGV
- TEST_DESCRIPTION: Inhibition of wild type human MEK1

| SMILES_STRING | VALUE_OBSERVED |
| --- | --- |
| Cc1ccc(O)cc1CC[C@@H]1C(=O)CC[C@]2(C)[C@@H]([C@H](C)CCCC(C)C)CC[C@@H]12 | > 100 µM |
| Cc1ccc(O)cc1CC[C@@H]1[C@H](O)CC[C@]2(C)[C@@H]([C@H](C)CCCC(C)C)[C@@H](O)C[C@@H]12 | > 100 µM |

Next compound, please.
I would be grateful if you could share the reported IC50 for "Cc1ccc(O)cc1CC[C@@H]1[C@H](O)CC[C@]2(C)[C@@H]([C@H](C)CCCC(C)C)CC[C@@H]12" .
48.9 µM

====

- SYSTEM_NAME: Vascular endothelial growth factor receptor 2 (Homo sapiens, UniProt P35968)
- Sequence (P35968 whole entry): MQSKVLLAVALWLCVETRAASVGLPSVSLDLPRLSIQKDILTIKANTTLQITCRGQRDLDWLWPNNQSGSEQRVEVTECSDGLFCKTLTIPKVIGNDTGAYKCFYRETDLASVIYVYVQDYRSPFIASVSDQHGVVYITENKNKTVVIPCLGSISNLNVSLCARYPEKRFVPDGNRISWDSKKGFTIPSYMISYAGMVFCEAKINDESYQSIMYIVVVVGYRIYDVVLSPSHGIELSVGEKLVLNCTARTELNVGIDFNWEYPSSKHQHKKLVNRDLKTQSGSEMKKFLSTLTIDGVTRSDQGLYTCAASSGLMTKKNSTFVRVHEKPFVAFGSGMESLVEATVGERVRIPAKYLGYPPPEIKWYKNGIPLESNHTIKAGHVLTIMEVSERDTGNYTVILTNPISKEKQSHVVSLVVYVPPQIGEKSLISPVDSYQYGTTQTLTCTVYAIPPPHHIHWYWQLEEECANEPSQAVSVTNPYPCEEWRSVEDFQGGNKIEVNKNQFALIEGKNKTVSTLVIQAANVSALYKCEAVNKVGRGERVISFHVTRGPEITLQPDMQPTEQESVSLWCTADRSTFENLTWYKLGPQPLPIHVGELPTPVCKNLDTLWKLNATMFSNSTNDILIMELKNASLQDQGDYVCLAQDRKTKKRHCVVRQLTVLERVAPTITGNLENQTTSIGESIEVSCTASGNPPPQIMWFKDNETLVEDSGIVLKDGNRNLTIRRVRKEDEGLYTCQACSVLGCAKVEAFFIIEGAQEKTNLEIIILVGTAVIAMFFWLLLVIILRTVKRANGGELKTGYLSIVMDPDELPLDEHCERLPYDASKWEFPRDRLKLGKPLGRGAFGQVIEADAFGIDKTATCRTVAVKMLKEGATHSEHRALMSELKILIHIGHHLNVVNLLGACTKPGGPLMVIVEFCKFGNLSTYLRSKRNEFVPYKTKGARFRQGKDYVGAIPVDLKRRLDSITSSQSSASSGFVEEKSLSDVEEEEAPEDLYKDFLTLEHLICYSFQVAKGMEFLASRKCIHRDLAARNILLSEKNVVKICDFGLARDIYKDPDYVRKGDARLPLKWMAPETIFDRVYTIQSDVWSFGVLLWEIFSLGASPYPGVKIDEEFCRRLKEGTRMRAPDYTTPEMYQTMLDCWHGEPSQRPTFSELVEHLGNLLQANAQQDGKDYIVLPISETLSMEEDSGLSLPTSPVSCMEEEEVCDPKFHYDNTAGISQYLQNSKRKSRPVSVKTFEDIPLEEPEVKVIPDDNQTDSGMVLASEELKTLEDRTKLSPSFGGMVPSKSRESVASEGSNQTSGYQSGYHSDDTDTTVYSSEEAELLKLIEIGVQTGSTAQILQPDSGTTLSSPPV
- TEST_DESCRIPTION: Inhibition of recombinant human VEGF-R2 using poly(Glu,Tyr)4:1 as substrate
Each entry below carries its reported pIC50.
On this scale, pIC50 is minus log10 of a concentration expressed in M (mol/L).

Worked examples follow.
| MOLECULE | pIC50 |
| --- | --- |
| Cc1ccc(O)cc1CC[C@@H]1C(=O)CC[C@]2(C)[C@@H]([C@H](C)/C=C/CC(C)C)CC[C@@H]12 | 5.34 |
| Cc1ccc(O)cc1CC[C@@H]1[C@@H](O)CC[C@]2(C)[C@@H]([C@H](C)/C=C/CC(C)C)CC[C@@H]12 (relative stereo) | 5.31 |
| C=C(CC[C@@H](C)[C@H]1CC[C@H]2[C@H](CCc3cc(O)ccc3C)C(=O)CC[C@]12C)C(C)C | 5.31 |

I would be grateful if you could share the reported pIC50 for "Cc1ccc(O)cc1CC[C@@H]1C(=O)CC[C@]2(C)[C@@H]([C@H](C)CCCC(C)C)CC[C@@H]12" .
5.22

I would be grateful if you could share the reported pIC50 for "Cc1ccc(O)cc1CC[C@@H]1[C@H](O)CC[C@]2(C)[C@@H]([C@H](C)CCCC(C)C)CC[C@@H]12" .
5.36

====

Each entry below carries its reported pIC50.
- SYSTEM_NAME: Focal adhesion kinase 1 (Homo sapiens)
- Sequence (Q05397 whole entry): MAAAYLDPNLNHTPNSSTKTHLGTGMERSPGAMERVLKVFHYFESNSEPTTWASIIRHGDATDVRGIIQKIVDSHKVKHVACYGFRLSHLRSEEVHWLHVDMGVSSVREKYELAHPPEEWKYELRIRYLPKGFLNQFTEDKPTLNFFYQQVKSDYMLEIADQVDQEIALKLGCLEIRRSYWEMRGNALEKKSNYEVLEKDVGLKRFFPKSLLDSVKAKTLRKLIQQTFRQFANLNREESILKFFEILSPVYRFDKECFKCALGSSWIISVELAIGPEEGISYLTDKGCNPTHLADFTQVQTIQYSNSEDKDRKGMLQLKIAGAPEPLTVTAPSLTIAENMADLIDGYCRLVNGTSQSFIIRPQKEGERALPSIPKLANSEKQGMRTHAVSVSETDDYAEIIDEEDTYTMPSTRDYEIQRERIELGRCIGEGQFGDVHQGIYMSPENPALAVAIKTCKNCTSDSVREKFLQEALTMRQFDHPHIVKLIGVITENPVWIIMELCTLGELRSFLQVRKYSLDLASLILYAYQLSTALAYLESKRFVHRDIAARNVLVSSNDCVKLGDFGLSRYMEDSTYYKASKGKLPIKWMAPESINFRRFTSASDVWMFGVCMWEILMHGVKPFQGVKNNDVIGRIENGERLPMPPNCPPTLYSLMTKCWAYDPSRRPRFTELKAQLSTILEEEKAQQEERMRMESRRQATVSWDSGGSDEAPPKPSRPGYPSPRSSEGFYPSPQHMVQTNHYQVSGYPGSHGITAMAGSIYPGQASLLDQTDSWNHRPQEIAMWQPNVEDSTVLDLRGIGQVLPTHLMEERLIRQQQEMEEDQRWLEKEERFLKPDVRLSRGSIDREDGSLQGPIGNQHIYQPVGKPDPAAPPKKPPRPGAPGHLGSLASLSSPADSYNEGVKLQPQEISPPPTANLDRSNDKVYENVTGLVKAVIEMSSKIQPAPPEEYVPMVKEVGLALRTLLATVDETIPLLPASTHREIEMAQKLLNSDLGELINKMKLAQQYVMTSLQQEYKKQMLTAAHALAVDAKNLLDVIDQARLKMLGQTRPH
- TEST_DESCRIPTION: Inhibition of recombinant human FAK using poly(Glu,Tyr)4:1 as substrate
On this scale, pIC50 is minus log10 of a concentration expressed in M (mol/L).

| MOLECULE | pIC50 |
| --- | --- |
| Cc1ccc(O)cc1CC[C@@H]1C(=O)CC[C@]2(C)[C@@H]([C@H](C)CCCC(C)C)CC[C@@H]12 [CALICOFEROL E] | 5.02 |
| Cc1ccc(O)cc1CC[C@@H]1[C@@H](O)CC[C@]2(C)[C@@H]([C@H](C)/C=C/CC(C)C)CC[C@@H]12 (relative stereo) | 4.77 |
| Cc1ccc(O)cc1CC[C@@H]1[C@H](O)CC[C@]2(C)[C@@H]([C@H](C)CCCC(C)C)CC[C@@H]12 [ASTROGORGIADIOL] | 4.88 |

I would be grateful if you could share the reported pIC50 for "C=C(CC[C@@H](C)[C@H]1CC[C@H]2[C@H](CCc3cc(O)ccc3C)C(=O)CC[C@]12C)C(C)C" .
4.97

====

- SYSTEM_NAME: Focal adhesion kinase 1 (Homo sapiens)
- TEST_DESCRIPTION: Inhibition of recombinant human FAK using poly(Glu,Tyr)4:1 as substrate
pIC50: −log10 of the molar value.
Each entry below carries its reported pIC50.

Worked examples follow.
| COMPOUND | pIC50 |
| --- | --- |
| Cc1ccc(O)cc1CC[C@@H]1C(=O)CC[C@]2(C)[C@@H]([C@H](C)CCCC(C)C)[C@@H](O)C[C@@H]12 [CALICOFEROL I] | < 4.00 |
| C=C(CC[C@@H](C)[C@H]1CC[C@H]2[C@H](CCc3cc(O)ccc3C)[C@H](O)CC[C@]12C)C(C)C [CALICOFEROL C] | < 4.00 |

Next compound, please.
I would be grateful if you could share the reported pIC50 for Cc1ccc(O)cc1CC[C@@H]1C(=O)CC[C@]2(C)[C@@H]([C@H](C)/C=C/CC(C)C)CC[C@@H]12 [CALICOFEROL A] .
5.00

====

Each entry below carries its reported pIC50.
- SYSTEM_NAME: ALK tyrosine kinase receptor (Homo sapiens, UniProt Q9UM73)
- Sequence (Q9UM73 whole entry): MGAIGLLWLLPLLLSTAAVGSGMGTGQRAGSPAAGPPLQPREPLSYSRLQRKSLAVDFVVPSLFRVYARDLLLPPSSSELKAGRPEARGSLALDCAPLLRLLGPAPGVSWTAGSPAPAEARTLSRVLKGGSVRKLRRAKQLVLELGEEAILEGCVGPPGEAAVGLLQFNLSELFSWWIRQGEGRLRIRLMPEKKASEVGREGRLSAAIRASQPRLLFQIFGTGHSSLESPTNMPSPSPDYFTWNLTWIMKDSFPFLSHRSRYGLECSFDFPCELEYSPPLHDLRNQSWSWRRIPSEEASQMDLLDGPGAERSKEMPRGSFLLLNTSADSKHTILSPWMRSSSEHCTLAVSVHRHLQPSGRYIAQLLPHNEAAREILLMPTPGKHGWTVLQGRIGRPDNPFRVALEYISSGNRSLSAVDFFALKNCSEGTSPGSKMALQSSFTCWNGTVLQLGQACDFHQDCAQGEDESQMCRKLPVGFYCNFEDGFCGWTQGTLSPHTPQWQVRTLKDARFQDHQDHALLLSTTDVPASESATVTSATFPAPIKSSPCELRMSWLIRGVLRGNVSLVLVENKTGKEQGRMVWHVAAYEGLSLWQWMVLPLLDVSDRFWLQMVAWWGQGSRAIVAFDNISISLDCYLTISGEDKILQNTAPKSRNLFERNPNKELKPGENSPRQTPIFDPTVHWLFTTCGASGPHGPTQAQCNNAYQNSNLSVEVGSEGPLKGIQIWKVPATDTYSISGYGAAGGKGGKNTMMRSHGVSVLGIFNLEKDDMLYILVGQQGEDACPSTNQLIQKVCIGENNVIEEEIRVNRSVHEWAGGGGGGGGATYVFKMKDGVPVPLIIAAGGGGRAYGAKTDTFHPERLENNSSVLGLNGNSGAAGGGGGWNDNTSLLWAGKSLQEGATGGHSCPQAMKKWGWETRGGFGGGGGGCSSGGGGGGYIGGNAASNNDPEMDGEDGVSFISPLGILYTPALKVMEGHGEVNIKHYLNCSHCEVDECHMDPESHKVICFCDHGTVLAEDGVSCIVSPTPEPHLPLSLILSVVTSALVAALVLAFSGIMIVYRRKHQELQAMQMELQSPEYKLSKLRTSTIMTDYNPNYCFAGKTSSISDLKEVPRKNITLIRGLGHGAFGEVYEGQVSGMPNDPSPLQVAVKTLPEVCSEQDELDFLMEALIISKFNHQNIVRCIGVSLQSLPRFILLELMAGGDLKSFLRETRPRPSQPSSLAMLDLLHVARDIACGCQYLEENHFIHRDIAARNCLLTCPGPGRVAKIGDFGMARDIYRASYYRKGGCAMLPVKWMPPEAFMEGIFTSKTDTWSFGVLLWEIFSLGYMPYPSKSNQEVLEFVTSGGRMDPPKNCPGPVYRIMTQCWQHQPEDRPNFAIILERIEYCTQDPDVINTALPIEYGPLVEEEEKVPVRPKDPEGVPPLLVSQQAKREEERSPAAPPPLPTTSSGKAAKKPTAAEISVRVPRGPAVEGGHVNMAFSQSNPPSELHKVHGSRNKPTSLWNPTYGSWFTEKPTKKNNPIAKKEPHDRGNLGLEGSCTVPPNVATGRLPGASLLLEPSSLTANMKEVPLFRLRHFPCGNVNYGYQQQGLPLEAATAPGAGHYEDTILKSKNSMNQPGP
- TEST_DESCRIPTION: Inhibition of recombinant human ALK
pIC50: −log10 of the molar value.

I would be grateful if you could share the reported pIC50 for "Cc1ccc(O)cc1CC[C@@H]1C(=O)CC[C@]2(C)[C@@H]([C@H](C)CCCC(C)C)[C@@H](O)C[C@@H]12" .
< 4.00

I would be grateful if you could share the reported pIC50 for "Cc1ccc(O)cc1CC[C@@H]1[C@H](O)CC[C@]2(C)[C@@H]([C@H](C)CCCC(C)C)[C@@H](O)C[C@@H]12" .
< 4.00

I would be grateful if you could share the reported pIC50 for "Cc1ccc(O)cc1CC[C@@H]1C(=O)CC[C@]2(C)[C@@H]([C@H](C)CCCC(C)C)CC[C@@H]12" .
5.33
